Reference source: PubChem BioAssay (NCATS)

Assay: P-glycoprotein substrates identified in KB-8-5-11 adenocarcinoma cell line, qHTS therapeutic library screen (AID 1346987); further: nearly all actives have a fitted effect of over 65% in size
Details: KB-8-5-11 (P-gp overexpressing) viability, CellTiter-Glo, 72 h; series mostly up to 44.5 µM
Inconclusive results are not listed. Calls of active or inactive are those of the source. The call rests on the fitted dose curve; in most records, active means well fitted inhibition curve with a large enough effect; inconclusive means small, poorly fitted or top-dose-only effect; inactive means flat fitted curve, though single readings scatter.
Labels: y = active, n = inactive

{"columns": ["Molecule", "Assigned class"],
 "data": [
  ["COc1cc(Nc2nc3ccccc3nc2NS(=O)(=O)c2ccc(NC(=O)c3ccc(C)c(OC)c3)cc2)cc(OC)c1", "n"],
  ["CC(=O)O[C@]1(C(C)=O)CC[C@H]2[C@@H]3C=C(Cl)C4=CC(=O)[C@@H]5C[C@H]5[C@]4(C)[C@@H]3CC[C@@]21C", "n"],
  ["Nc1[nH]nc2nnc(-c3c(-c4ccccc4)nn4ccccc34)cc12", "n"],
  ["COc1nccc(-c2c(-c3ccc(F)cc3)ncn2C2CCNCC2)n1", "n"],
  ["COc1c(C)c2c(c(O)c1CC=C(C)CCC(=O)OCCN1CCOCC1)C(=O)OC2", "y"],
  ["C=C1c2cccc(O)c2C(O)=C2C(=O)[C@@]3(O)C(O)=C(C(N)=O)C(=O)[C@@H](N(C)C)[C@@H]3[C@@H](O)[C@H]12", "n"],
  ["CC(C)c1onc(-c2c(Cl)cccc2Cl)c1COc1ccc(C=Cc2cccc(C(=O)O)c2)c(Cl)c1", "n"],
  ["CO[C@H]1/C=C\\O[C@@]2(C)Oc3c(C)c(O)c4c(O)c(c5c(nc6cc(C)ccn65)c4c3C2=O)NC(=O)C(C)=CC=C[C@H](C)[C@H](O)[C@@H](C)[C@@H](O)[C@@H](C)[C@H](OC(C)=O)[C@H]1C", "n"],
  ["COc1c(C)c2c(c(O)c1CC=C(C)CCC(=O)O)C(=O)OC2", "y"],
  ["COc1cc2nccc(Oc3ccc(NC(=O)Nc4ccc(F)cc4F)c(F)c3)c2cc1OC", "y"],
  ["Cc1nc(C(=O)NCC(=O)O)c(O)c2ccc(Oc3ccccc3)cc12", "n"],
  ["CNC(=O)c1cc(COc2nnc(Nc3ccc(Cl)cc3)c3ccoc23)ccn1", "n"],
  ["CC(C)c1c(C(=O)Nc2ccccc2)c(-c2ccccc2)c(-c2ccc(F)cc2)n1CC[C@H](O)C[C@@H](O)CC(=O)O", "n"],
  ["C[C@@H]1C[C@H]2[C@@H]3CCC4=CC(=O)C=C[C@]4(C)[C@@]3(F)[C@@H](O)C[C@]2(C)[C@@]1(O)C(=O)CO", "n"],
  ["O=C1C(c2c(O)[nH]c3ccccc23)=Nc2ccccc21", "n"],
  ["CCOC(=O)N1CCN([N+]([O-])=NOc2cc(ON=[N+]([O-])N3CCN(C(=O)OCC)CC3)c([N+](=O)[O-])cc2[N+](=O)[O-])CC1", "n"],
  ["Cc1cc2nc3c(=O)[nH]c(=O)nc-3n(CC(O)C(O)C(O)CO)c2cc1C (stereo not given)", "n"],
  ["CC(C)C[C@@H](C(=O)N[C@H](C(=O)OC1CCCC1)c1ccccc1)[C@H](O)C(=O)NO", "y"],
  ["NC(=O)c1ccc(N(C(N)=O)c2c(F)cccc2F)nc1-c1ccc(F)cc1F", "n"],
  ["Cc1ccc(C(=O)N(CCCN)[C@@H](c2nc3cc(Cl)ccc3c(=O)n2Cc2ccccc2)C(C)C)cc1", "y"],
  ["O=C1Nc2ccc(I)cc2C1=Cc1cc(Br)c(O)c(Br)c1", "n"],
  ["CN[C@@H](C)[C@H]1[C@H](O)C[C@@]2(C)[C@@H]3CC[C@H]4C(C)(C)[C@@H](NC)CC[C@@]45C[C@@]35CC[C@]12C", "n"],
  ["CC1C(=O)OC2C(O)C34C5CC(C(C)(C)C)C36C(OC(=O)C6O)OC4(C(=O)O5)C12O (stereo not given)", "n"],
  ["OC[C@H]1O[C@@H](OCCc2ccc(O)cc2)[C@H](O)[C@@H](O)[C@H]1O", "n"],
  ["CCc1cccc(CC)c1NC(=O)N1Cc2[nH]nc(NC(=O)c3ccc(N4CCN(C)CC4)cc3)c2C1", "n"],
  ["Cn1c(=O)c(Oc2ccc(F)cc2F)cc2cnc(NC3CCOCC3)nc21", "n"],
  ["NC(N)=Nc1nc(CSCCC(N)=NS(N)(=O)=O)cs1", "n"],
  ["CCC=CC[C@H]1C(=O)CC[C@@H]1CC(=O)OC", "n"],
  ["CN(C)CCOc1ccc(-c2nc(-c3ccc4c(c3)CCC4=NO)c(-c3ccncc3)[nH]2)cc1", "n"],
  ["O=C(Nc1ccccc1)Nc1ccc(-c2ccc(C(=O)[C@H]3CCC[C@H]3C(=O)O)cc2)cc1", "n"],
  ["COc1ccc(-c2oc3c(CC=C(C)C)c(O)cc(O)c3c(=O)c2O)cc1", "n"],
  ["CCCCC[C@H](O)C=C[C@H]1[C@H](O)CC(=O)[C@H]1CC=CCCCC(=O)O", "n"],
  ["CCCCn1c(=O)n(Cc2ccccc2F)c(=O)c2[nH]c(Cc3ccc(NC(C)=O)cc3)nc21", "n"],
  ["CCOC(=O)[C@H]1O[C@H]1C(=O)N[C@@H](CC(C)C)C(=O)NCCC(C)C", "n"],
  ["CC1=C[C@@H]2[C@@H]([C@@H](O)C[C@@]3(C)[C@H]2C[C@@H](C)[C@]3(O)C(=O)CO)[C@@]2(C)Cc3cnn(-c4ccccc4)c3C=C12", "y"]
]}
